System: HepG2
Test: Antiproliferative activity against human HepG2 cells after 48 hrs by MTT assay
Type: functional, cell-based
Details: HepG2, 48 h
Quick list: IC50 per entry.
Hi! Could you send only the number? It should be in µM, unit omitted.

{"Compound": "O=c1[nH]cc(F)c(=O)[nH]1 [FLUOROURACIL]", "System Name": "HepG2", "IC50 / µM": 23.6}

(Q) Looking for the measured IC50 of CCOC(=O)[C@@]1(C)CC[C@]2(C)CC[C@]3(C)C(=CC(=O)[C@@H]4[C@@]5(C)CC[C@H](OC(=O)CCC(=O)Nc6nc7ccc(Br)cc7s6)C(C)(C)[C@@H]5CC[C@]43C)[C@@H]2C1 , can you help?
(A) 19

(Q) Entry COc1cccc2sc(NC(=O)[C@@]3(C)CC[C@]4(C)CC[C@]5(C)C(=CC(=O)[C@@H]6[C@@]7(C)CC[C@H](O)C(C)(C)[C@@H]7CC[C@]65C)[C@@H]4C3)nc12 please
(A) 86.3

(Q) Entry CC(=O)O[C@H]1CC[C@]2(C)[C@H]3C(=O)C=C4[C@@H]5C[C@@](C)(C(=O)Nc6nc7ccc(Cl)cc7s6)CC[C@]5(C)CC[C@@]4(C)[C@]3(C)CC[C@H]2C1(C)C please
(A) 73.1

(Q) Entry CCOC(=O)[C@@]1(C)CC[C@]2(C)CC[C@]3(C)C(=CC(=O)[C@@H]4[C@@]5(C)CC[C@H](OC(=O)CCC(=O)Nc6nc7c(F)cccc7s6)C(C)(C)[C@@H]5CC[C@]43C)[C@@H]2C1 please
(A) 12.5

(Q) Entry CC(=O)O[C@H]1CC[C@]2(C)[C@H]3C(=O)C=C4[C@@H]5C[C@@](C)(C(=O)Nc6nc7ccc(F)cc7s6)CC[C@]5(C)CC[C@@]4(C)[C@]3(C)CC[C@H]2C1(C)C please
(A) 65.6

(Q) Entry CC1(C)[C@@H](O)CC[C@]2(C)[C@H]3C(=O)C=C4[C@@H]5C[C@@](C)(C(=O)Nc6nc7ccccc7s6)CC[C@]5(C)CC[C@@]4(C)[C@]3(C)CC[C@@H]12 please
(A) 88

(Q) Entry CCOC(=O)[C@@]1(C)CC[C@]2(C)CC[C@]3(C)C(=CC(=O)[C@@H]4[C@@]5(C)CC[C@H](OC(=O)CCC(=O)Nc6nc7ccc(OC)cc7s6)C(C)(C)[C@@H]5CC[C@]43C)[C@@H]2C1 please
(A) 20.4
